B1: TPR t1 (parent)
chain: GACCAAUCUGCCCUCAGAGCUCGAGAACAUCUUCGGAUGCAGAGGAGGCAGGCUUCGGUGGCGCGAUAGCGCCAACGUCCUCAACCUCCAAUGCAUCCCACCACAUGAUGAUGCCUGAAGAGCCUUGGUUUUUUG

- Variants of: B1
- test_name: polymerase ribozyme fitness, log enrichment relative to wild type (log ratio); higher = more active; in vitro selection for triplet polymerase activity
quantity: polymerase ribozyme fitness (log ratio)
Lab note: record the figure alone, no unit after it.

A5U G63U G110A    -2.89

Can you share its polymerase ribozyme fitness (log ratio)? I mean this variant: G113U U133A
-3.57

Can you share its polymerase ribozyme fitness (log ratio)? I mean this variant: C28U G60C A118G
-2.75

Can you share its polymerase ribozyme fitness (log ratio)? I mean this variant: C82G C86U
-0.172
